Sourced from the supplement of paper PMC7125110

B1: glmS ribozyme (parent)
chain: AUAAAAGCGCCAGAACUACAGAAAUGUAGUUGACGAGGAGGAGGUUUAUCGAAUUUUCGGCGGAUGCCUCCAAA

Variants of: B1
Experiment: self-cleavage kobs at 2500 uM GlcN6P; higher = faster cleavage; RNA array
Details: with glucosamine-6-phosphate
This sample holds only a part of the variants without activity.
measure: self-cleavage kobs at 2500 uM GlcN6P (s⁻¹)
Write down the numeric answer in s⁻¹ and omit the unit.

Study these solved cases before continuing.
{"mutation.key": "G32U U55C", "value.unit": "s⁻¹", "self-cleavage kobs at 2500 uM GlcN6P": 0.000307}
{"mutation.key": "A14U A15G G32U U57G U69A", "value.unit": "s⁻¹", "self-cleavage kobs at 2500 uM GlcN6P": 0.000285}
{"mutation.key": "A15U A52U", "value.unit": "s⁻¹", "self-cleavage kobs at 2500 uM GlcN6P": "9.15e-05"}
{"mutation.key": "A6G A53U", "value.unit": "s⁻¹", "self-cleavage kobs at 2500 uM GlcN6P": 0.000191}
{"mutation.key": "C16U C50G U55C", "value.unit": "s⁻¹", "self-cleavage kobs at 2500 uM GlcN6P": "7.17e-05"}

Lab book: self-cleavage kobs at 2500 uM GlcN6P of U31A U56G C58G noted as 0.000252

get_value(item= C16U G40A , readout=self-cleavage kobs at 2500 uM GlcN6P) returns 0.00398

Notebook: U47C U49G , self-cleavage kobs at 2500 uM GlcN6P read as 0.000146

get_value(item= G32A U65A C71U , readout=self-cleavage kobs at 2500 uM GlcN6P) returns 9.54e-05

Recorded self-cleavage kobs at 2500 uM GlcN6P (variant G29A U31G U54G ): 6.58e-05

The reported self-cleavage kobs at 2500 uM GlcN6P of the variant U30C G32U was 0.000183

Data point: C11U U31C G41U A64G C70A ; self-cleavage kobs at 2500 uM GlcN6P = 0.0011

// self-cleavage kobs at 2500 uM GlcN6P lookup, variant = G29U U54C , result: 0.00249

Measured self-cleavage kobs at 2500 uM GlcN6P, G29U G32A A53C : 0.000152

# self-cleavage kobs at 2500 uM GlcN6P (variant: G40U A53G U65C ) is 4.92e-05

For this variant ( G13C A14C C71U ), measured self-cleavage kobs at 2500 uM GlcN6P is 0.000105

Consider A15G A48U C70G . Its measured self-cleavage kobs at 2500 uM GlcN6P is 6.9e-05

Looking up A12C U47G , I see its self-cleavage kobs at 2500 uM GlcN6P listed as 0.00247

The variant listed as A5U shows self-cleavage kobs at 2500 uM GlcN6P equal to 0.0143

# variant G40A U56A ; its self-cleavage kobs at 2500 uM GlcN6P = 0.00192
